# TESTED TARGET: G-protein coupled receptor 52 (Homo sapiens, UniProt Q9Y2T5)
# Sequence (Q9Y2T5 whole entry): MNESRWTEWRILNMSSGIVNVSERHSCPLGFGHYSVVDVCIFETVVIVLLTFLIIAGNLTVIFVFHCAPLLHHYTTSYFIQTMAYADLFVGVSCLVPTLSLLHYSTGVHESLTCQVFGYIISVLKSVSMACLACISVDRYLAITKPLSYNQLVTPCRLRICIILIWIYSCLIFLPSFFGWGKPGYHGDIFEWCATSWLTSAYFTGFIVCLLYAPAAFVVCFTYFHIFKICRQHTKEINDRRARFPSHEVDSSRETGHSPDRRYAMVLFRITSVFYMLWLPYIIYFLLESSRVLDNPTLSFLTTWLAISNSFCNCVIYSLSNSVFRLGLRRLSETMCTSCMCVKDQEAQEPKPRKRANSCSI
# PROTOCOL DETAILS: Agonist activity at GPR52 (unknown origin)
Could you please report measured EC50 for the items listed next?
Answers are plain numbers, in nM.

Provide reported EC50 for each item, in the same order as listed.
1. O=C(NCCO)c1cccc(-c2cccc(OCCc3cc(F)cc(Cl)c3)n2)c1
2. O=C(NCCO)c1cccc(-c2cccc(OCCc3cccc(C(F)(F)F)c3)n2)c1

[347, 646]

====

# TESTED TARGET: G-protein coupled receptor 52 (Homo sapiens, UniProt Q9Y2T5)
# PROTOCOL DETAILS: Agonist activity at human GPR52 expressed in CHO cells assessed as cAMP production after 30 mins by Alphascreen assay relative to N-(2-Hydroxyethyl)-3-{2-[3-(trifluoromethyl)benzyl]-1-benzofuran-4-yl}benzamide
# Type: functional, cell-based
Could you please report measured Emax for the items listed next?
One number for each entry, in %.

// worked examples, Emax included
MOLECULE: NC(=O)CNC(=O)c1cccc(-c2cccc3cc(Cc4cccc(C(F)(F)F)c4)sc23)c1
Emax / %: 102
--
MOLECULE: O=C(NCCO)c1cccc(-c2cccc3cc(Cc4cccc(C(F)(F)F)c4)sc23)c1
Emax / %: 79.6
--
MOLECULE: COCCNC(=O)c1cccc(-c2cccc3cc(Cc4cccc(C(F)(F)F)c4)sc23)c1
Emax / %: 85
--
MOLECULE: O=C(NCCO)c1cccc(-c2cccc3c2OC(Cc2cccc(C(F)(F)F)c2)C3)c1 (racemic)
Emax / %: 56.1
--
MOLECULE: O=C(NCCO)c1cccc(-c2cccc3nn(Cc4cccc(C(F)(F)F)c4)cc23)c1
Emax / %: 79.1

Provide reported Emax for each item, in the same order as listed.
1. O=C(NCCO)c1cccc(-c2cccc3cn(Cc4cccc(C(F)(F)F)c4)nc23)c1
2. O=C(NCCO)c1cccc(-c2cccc3c2CC(Cc2cccc(C(F)(F)F)c2)O3)c1 (racemic)
3. NC(=O)CNC(=O)c1cccc(-c2ccc(F)c3cc(Cc4cccc(C(F)(F)F)c4)sc23)c1

1. 69.7
2. 45.9
3. 107

Please tell me: Emax of `Cc1c(Cc2cccc(C(F)(F)F)c2)oc2c(-c3cccc(C(=O)NCCO)c3)cccc12` , system G-protein coupled receptor 52 (Homo sapiens, UniProt Q9Y2T5)?
71.5

====

# PROTOCOL DETAILS: Cmax in mouse at 1 mg/kg, po administered via cassette dosing
# Assay type: ADME, organism-based
# Design: dose 1 mg/kg, route oral
# TEST PARAMETERS: in vivo
ENDPOINT NAME: Cmax (ng/mL)
One number for each entry, in ng/mL.

Given the entry `COCCNC(=O)c1cccc(-c2cccc3cc(Cc4cc(F)cc(Cl)c4)sc23)c1` , report its measured Cmax.
108

====

# PROTOCOL DETAILS: Oral bioavailability in mouse at 1 mg/kg administered via cassette dosing
# Type: ADME, organism-based
# TEST PARAMETERS: in vivo
ENDPOINT NAME: bioavailability (%)
Give bare numbers, in %.

Given the entry `COCCNC(=O)c1cccc(-c2cccc3cc(Cc4cc(F)cc(Cl)c4)sc23)c1` , report its measured bioavailability.
73

====

# TESTED TARGET: G-protein coupled receptor 52 (Homo sapiens, UniProt Q9Y2T5)
# PROTOCOL DETAILS: Agonist activity at human GPR52 expressed in CHO cells assessed as cAMP production after 30 mins by Alphascreen assay relative to N-(2-Hydroxyethyl)-3-{2-[3-(trifluoromethyl)benzyl]-1-benzofuran-4-yl}benzamide
# Format: functional, cell-based
ENDPOINT NAME: Emax (%)
Give bare numbers, in %.

// worked examples, Emax included
SMI: O=C(NCCO)c1cccc(-c2cccc3cc(Cc4cccc(C(F)(F)F)c4)oc23)c1
MEASURED NUMBER: 74.8

SMI: O=C(NCCO)c1cccc(-c2cccc3sc(Cc4cccc(C(F)(F)F)c4)cc23)c1
MEASURED NUMBER: 68.6

SMI: COCCNC(=O)c1cccc(-c2cccc3cc(Cc4cc(F)cc(Cl)c4)sc23)c1
MEASURED NUMBER: 79.8

Given the entry `O=C(NCCO)c1cccc(-c2cccc3oc(Cc4cccc(C(F)(F)F)c4)cc23)c1` , report its measured Emax.
85.7

====

# TESTED TARGET: G-protein coupled receptor 52 (Homo sapiens, UniProt Q9Y2T5)
# PROTOCOL DETAILS: Agonist activity at human GPR52 expressed in CHO cells assessed as cAMP production after 30 mins by Alphascreen assay
# Assay type: functional, cell-based
Could you please report measured EC50 for the items listed next?

// worked examples, EC50 included
COMPOUND: Cc1c(Cc2cccc(C(F)(F)F)c2)oc2c(-c3cccc(C(=O)NCCO)c3)cccc12
EC50: 81.3 nM

COMPOUND: O=C(NCCO)c1cccc(-c2cccc3cc(Cc4cccc(C(F)(F)F)c4)oc23)c1
EC50: 34.7 nM

COMPOUND: COCCNC(=O)c1cccc(-c2cccc3cc(Cc4cc(F)cc(Cl)c4)sc23)c1
EC50: 29.5 nM

COMPOUND: NC(=O)CNC(=O)c1cccc(-c2ccc(F)c3cc(Cc4cccc(C(F)(F)F)c4)sc23)c1
EC50: 83.2 nM

COMPOUND: O=C(NCCO)c1cccc(-c2cccc3nn(Cc4cccc(C(F)(F)F)c4)cc23)c1
EC50: 38.9 nM

Provide reported EC50 for each item, in the same order as listed.
1. NC(=O)CNC(=O)c1cccc(-c2cccc3cc(Cc4cccc(C(F)(F)F)c4)sc23)c1
2. O=C(NCCO)c1cccc(-c2cccc3c2OC(Cc2cccc(C(F)(F)F)c2)C3)c1 (racemic)
3. Cc1c(Cc2cccc(C(F)(F)F)c2)oc2cccc(-c3cccc(C(=O)NCCO)c3)c12
4. COc1ccc(-c2ccnc(NCCc3ccc(OC)c(OC)c3)n2)cc1

55 nM
209 nM
> 10000 nM
> 10000 nM

====

# PROTOCOL DETAILS: AUC (0 to 8 hrs) in mouse at 1 mg/kg, po administered via cassette dosing
# Assay type: ADME, organism-based
# Parameters: time < 8 hr, dose 1 mg/kg, route oral
# TEST PARAMETERS: plasma
ENDPOINT NAME: AUC(0-t) at 8 h
Answer with the figure and its unit, nothing else.

Given the entry `COCCNC(=O)c1cccc(-c2cccc3cc(Cc4cc(F)cc(Cl)c4)sc23)c1` , report its measured AUC(0-t) at 8 h.
0.614 µg·h/mL

====

# PROTOCOL DETAILS: Ratio of AUC from brain to plasma in mouse at 30 mg/kg, po
# Format: ADME, organism-based
# Set-up: dose 30 mg/kg, route oral
# TEST PARAMETERS: read-out: Ratio AUC
ENDPOINT NAME: Kp
Numbers only.

Given the entry `COCCNC(=O)c1cccc(-c2cccc3cc(Cc4cc(F)cc(Cl)c4)sc23)c1` , report its measured Kp.
0.94

====

# TESTED TARGET: G-protein coupled receptor 52 (Homo sapiens, UniProt Q9Y2T5)
# PROTOCOL DETAILS: Agonist activity at human GPR52 expressed in CHO cells assessed as cAMP production after 30 mins by Alphascreen assay
# Assay type: functional, cell-based
Just a reminder that ties go to criterion not met: only EC50 strictly below 40 nM counts as criterion met.

COMPOUND: O=C(NCCO)c1cccc(-c2cccc3oc(Cc4cccc(C(F)(F)F)c4)cc23)c1
TESTED TARGET: G-protein coupled receptor 52 (Homo sapiens, UniProt Q9Y2T5)
CLASS LABEL: criterion met
//
COMPOUND: O=C(NCCO)c1cccc(-c2cccc3c2CC(Cc2cccc(C(F)(F)F)c2)O3)c1 (racemic)
TESTED TARGET: G-protein coupled receptor 52 (Homo sapiens, UniProt Q9Y2T5)
CLASS LABEL: criterion not met
//
COMPOUND: O=C(NCCO)c1cccc(-c2cccc3sc(Cc4cccc(C(F)(F)F)c4)cc23)c1
TESTED TARGET: G-protein coupled receptor 52 (Homo sapiens, UniProt Q9Y2T5)
CLASS LABEL: criterion met
//
COMPOUND: O=C(NCCO)c1cccc(-c2cccc3cc(Cc4cccc(C(F)(F)F)c4)sc23)c1
TESTED TARGET: G-protein coupled receptor 52 (Homo sapiens, UniProt Q9Y2T5)
CLASS LABEL: criterion met
//
COMPOUND: COCCNC(=O)c1cccc(-c2cccc3cc(Cc4cccc(C(F)(F)F)c4)sc23)c1
TESTED TARGET: G-protein coupled receptor 52 (Homo sapiens, UniProt Q9Y2T5)
CLASS LABEL: criterion not met

Now examine the next entry.
Given the entry `O=C(NCCO)c1cccc(-c2cccc3cn(Cc4cccc(C(F)(F)F)c4)nc23)c1` , would its reported EC50 be below 40 nM?
criterion not met
